biological target: recombinant homotrimeric HA A/Egypt/3300-NAMRU3/08 H5N1 (Influenza A virus A/Egypt/3300-NAMRU3/2008(H5N1)); experiment: protein microarray, purified IgG, trimeric HA; conditions: remark: other sources report otherwise
Entries get a class label from measured Trimeric HA Binding: RLU. See ranges: class 1 = under 2000 RLU, class 2 = from 2000 RLU up to 20000 RLU, class 3 = 20000 RLU and over

BINDER	ASSIGNED CLASS
TCN-553 (5261_C18) (antibody, V domains shown) VH: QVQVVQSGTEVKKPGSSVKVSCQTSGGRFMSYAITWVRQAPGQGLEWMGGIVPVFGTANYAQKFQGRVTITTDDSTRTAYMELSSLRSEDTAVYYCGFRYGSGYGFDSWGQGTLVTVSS VL: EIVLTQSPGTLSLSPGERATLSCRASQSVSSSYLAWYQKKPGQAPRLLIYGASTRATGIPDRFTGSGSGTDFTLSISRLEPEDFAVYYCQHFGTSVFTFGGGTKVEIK	class 3
TCN-540 (5060_F05) (antibody, V domains shown) VH: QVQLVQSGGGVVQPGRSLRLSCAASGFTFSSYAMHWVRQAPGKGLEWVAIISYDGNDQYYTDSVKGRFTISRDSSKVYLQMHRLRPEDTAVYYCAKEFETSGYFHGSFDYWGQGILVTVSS VL: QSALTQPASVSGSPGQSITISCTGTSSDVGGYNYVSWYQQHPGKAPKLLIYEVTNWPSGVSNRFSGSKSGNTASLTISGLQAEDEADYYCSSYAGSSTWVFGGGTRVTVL	class 1
TCN-543 (5081_G23) (antibody, V domains shown) VH: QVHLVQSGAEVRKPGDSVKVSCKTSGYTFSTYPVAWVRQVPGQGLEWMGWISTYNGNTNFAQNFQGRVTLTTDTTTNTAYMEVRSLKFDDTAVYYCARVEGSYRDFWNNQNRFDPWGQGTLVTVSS VL: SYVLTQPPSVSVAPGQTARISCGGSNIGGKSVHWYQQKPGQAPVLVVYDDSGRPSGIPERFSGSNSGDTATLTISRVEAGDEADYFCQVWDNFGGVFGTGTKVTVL	class 1

Form: Item = TCN-544 (5082_A19) (antibody, V domains shown) VH: QVQLQESGPGLVKPSETLSLTCTVSRGSIGHYFWSWIRQPPGKGLEWIGYISYSGSTKYNPSLRSRVTISVDTSKNQFSLNLNSVTATDTALYYCAREDYDILTGAGPGMEVWGQGTTVTVSS VL: QSMLTQPPSASGTPGQRVTISCSGSSSNIGSNTVNWFKHLPGTAPKLLIYRNDLRPSGVPDRFSGSKSGTSASLAISGLQSEDEADYYCATWDDSLNGFYVFGTGTKVTVL ; Class = ?
class 2

Please let me know in which category the item TCN-542 (5079_A16) (antibody, V domains shown) VH: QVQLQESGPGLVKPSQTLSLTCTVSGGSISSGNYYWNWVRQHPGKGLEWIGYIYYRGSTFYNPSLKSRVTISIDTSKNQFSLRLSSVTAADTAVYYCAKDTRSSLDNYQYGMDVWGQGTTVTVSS VL: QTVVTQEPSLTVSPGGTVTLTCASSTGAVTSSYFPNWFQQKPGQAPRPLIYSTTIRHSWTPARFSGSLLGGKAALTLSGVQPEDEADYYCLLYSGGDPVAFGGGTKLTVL belongs.
class 1

Band of TCN-523 (5248_A17) (antibody, V domains shown) VH: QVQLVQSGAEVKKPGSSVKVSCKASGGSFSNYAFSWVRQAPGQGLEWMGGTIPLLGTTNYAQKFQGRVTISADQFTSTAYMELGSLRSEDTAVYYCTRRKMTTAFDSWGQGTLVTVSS VL: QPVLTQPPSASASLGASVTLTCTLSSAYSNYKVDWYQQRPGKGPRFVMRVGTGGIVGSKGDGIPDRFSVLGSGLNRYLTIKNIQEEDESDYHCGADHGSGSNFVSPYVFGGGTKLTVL ?
class 3

Determine which band this binder sits in: TCN-538 (3206_O17) (antibody, V domains shown) VH: QITLKESGPTLVKPTQTLTLTCVFSGFSLSITGVRVGWIRQPPGKALEWLALISWDDEKHYSPSLQSRLTITKDTSKNQVVLTMTNLDPVDTATYYCARSTDRGHVLRYFGWMLPGDAFDVWGQGTMVTVSS VL: DIVMTQSPDFLPVSLGERATINCKSSQRVLYSSNNKNYLAWYQLKPGQPPKLIIYWASTRESGVPDRFSGSGSGTEFTLTISSLQAEDVAVYYCQQYYSRPYTFGQGTKLEIK
class 2

Dear colleague, I would appreciate it if you could identify the bin for TCN-557 (5081_A04) (antibody, V domains shown) VH: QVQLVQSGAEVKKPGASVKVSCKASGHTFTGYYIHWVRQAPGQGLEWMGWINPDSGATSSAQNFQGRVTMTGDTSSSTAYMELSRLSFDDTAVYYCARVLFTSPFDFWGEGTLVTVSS VL: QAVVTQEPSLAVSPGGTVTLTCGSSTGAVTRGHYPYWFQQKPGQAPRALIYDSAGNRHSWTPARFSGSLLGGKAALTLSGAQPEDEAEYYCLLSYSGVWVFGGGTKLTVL and reply at your convenience.
class 3

Category lookup for the binder TCN-550 (5096_F06) (antibody, V domains shown) VH: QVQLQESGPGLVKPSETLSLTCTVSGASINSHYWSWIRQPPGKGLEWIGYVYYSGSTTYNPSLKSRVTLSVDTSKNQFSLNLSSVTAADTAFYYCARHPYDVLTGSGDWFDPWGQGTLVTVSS VL: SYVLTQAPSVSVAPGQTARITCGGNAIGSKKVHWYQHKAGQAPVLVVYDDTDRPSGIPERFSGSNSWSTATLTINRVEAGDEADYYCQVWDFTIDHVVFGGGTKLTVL
class 2
